Origin of values: PubChem BioAssay (NCI)

- Tested on: HOP-62 NSCLC
- experiment: NCI tumour cell line growth inhibition, 48 h
readoutLabel: TGI

>  <compound>
CCOC(=O)NC(=O)c1cn(CCN2CCNCC2)c(=O)[nH]c1=O

>  <measValue>
> 100 µM

$$$$
>  <compound>
Cc1ccc(/C=C(\C#N)c2ccccc2)cc1

>  <measValue>
> 100 µM

$$$$
>  <compound>
NC(=O)C(Nc1ccc(Cl)cc1)c1cc2cc(Br)ccc2nc1Cl (stereo not drawn)

>  <measValue>
> 50 µM

$$$$

---

- System: T-47D breast
- experiment: NCI tumour cell line growth inhibition, 48 h
# TGI annotations

>  <molecule>
CCN(CC)CC(C)(C)C(=O)/C=C/c1ccc(/C=C/C(=O)C(C)(C)CN(CC)CC)cc1

>  <TGI>
3.21 µM

$$$$
>  <molecule>
N#Cc1c(-c2ccccc2)c(C#N)c(=O)n(C2OC(CO)C(O)C(O)C2O)c1S (configuration not stated)

>  <TGI>
> 100 µM

$$$$
>  <molecule>
COc1ccc(/C=C2\CC(C)CC3C2=NN(c2ccccc2)C3c2ccc(OC)c(OC)c2)cc1OC (configuration not stated)

>  <TGI>
> 100 µM

$$$$
>  <molecule>
NC(=O)C(Nc1ccc(Cl)cc1)c1cc2cc(Br)ccc2nc1Cl (configuration not stated)

>  <TGI>
> 50 µM

$$$$
>  <molecule>
CC[C@@H](/C=C\CCC1(C[C@@H](N)CCC=C(C)C)OCCO1)O[Si](C(C)C)(C(C)C)C(C)C

>  <TGI>
48.7 µM

$$$$
>  <molecule>
NNC(=S)Nc1cccc(Cl)c1

>  <TGI>
> 100 µM

$$$$
>  <molecule>
COc1ccc(CNc2cnc3cc(N)cc(N)c3n2)cc1

>  <TGI>
> 100 µM

$$$$
>  <molecule>
COc1cc2ncn(-c3cc(OCc4ccccc4C(F)(F)F)c(C(C)=O)s3)c2cc1OC

>  <TGI>
> 25 µM

$$$$
>  <molecule>
O=C1C(Cl)C(c2cc3cc(Br)ccc3nc2Cl)N1c1c(Cl)cccc1Cl (configuration not stated)

>  <TGI>
> 25 µM

$$$$
>  <molecule>
CCOC(=O)N1[C@@H]2CCC[C@@H]2C(=O)[C@@H]2CCC[C@@H]21

>  <TGI>
> 100 µM

$$$$
>  <molecule>
COC1(CC[C@H](C)COC2OC(CO)C(O)C(O)C2O)O[C@H]2C[C@H]3[C@@H]4CC=C5C[C@@H](OC6OC(CO)C(O)C(OC7OC(CO)C(O)C(O)C7O)C6OC6OC(C)C(O)C(O)C6O)CC[C@]5(C)[C@H]4CC[C@]3(C)[C@H]2[C@@H]1C (some centres not stated)

>  <TGI>
9.68 µM

$$$$
>  <molecule>
CCCCCCCCCc1c(O)c(O)c(CCCCCCCCC)c(CCCCCCCCC)c1CCCCCCCCC

>  <TGI>
> 100 µM

$$$$

---

# TGI annotations
- System: SK-MEL-5 melanoma
- experiment: NCI tumour cell line growth inhibition, 48 h

>  <compound>
C1CCN2CC3CCCN4CCCC(C2C1)C34 (centres undefined)

>  <testedOn>
SK-MEL-5 melanoma

>  <TGI>
> 100 µM

$$$$
>  <compound>
Cc1ccc(/C=C(\C#N)c2ccccc2)cc1

>  <testedOn>
SK-MEL-5 melanoma

>  <TGI>
> 100 µM

$$$$
>  <compound>
COC(=O)[C@@H]1Cc2cc(O)c(O)cc2C2(CCN(C)CC2)O1

>  <testedOn>
SK-MEL-5 melanoma

>  <TGI>
> 10 µM

$$$$
>  <compound>
CC1(C)CN=C(Nc2ccc(F)c(F)c2)S1

>  <testedOn>
SK-MEL-5 melanoma

>  <TGI>
> 100 µM

$$$$
